Assay: gradient 5% acetonitrile 3 min, to 50% in 2 min, to 85% in 15 min, held 3 min, 100 µL/min
Settings: column: Zorbax Extend-C18 2.1 x 50 mm; eluents: water / acetonitrile, 0.1% formic acid
Decision: RP-LC retention time beneath 800 s gives 1.0; RP-LC retention time meeting or exceeding 800 s gives 0.0.

**Query** Field: below-cutoff. Rule: recorded RP-LC retention time strictly less than 800 s. Subject: Cc1ccc(S(=O)(=O)N2CCCC(CCC(=O)NCc3ccccc3)C2)cc1 (stereo not given)
**Result** 0.0

**Query** Please do the same for Cc1ccccc1NC(=O)C1CCCN(c2ncnc3c2nc2n3CCCCC2)C1 (stereo not given) as well.
**Result** 1.0

**Query** Please do the same for `COCCn1c(SCc2c(F)cccc2Cl)nnc1-c1cn(C)nc1OC` as well.
**Result** 1.0

**Query** Please do the same for `Cc1ccc(-c2nc(C3CCN(S(=O)(=O)c4ccc(C)c(C)c4)CC3)no2)cc1` as well.
**Result** 0.0

**Query** Please do the same for `O=C(Cc1csc(-n2cccc2)n1)Nc1ccc(-n2cnnn2)cc1` as well.
**Result** 1.0

**Query** Please do the same for `CCCN1C(=O)COc2ccc(-c3noc(-c4ccc(OC)cc4)n3)cc21` as well.
**Result** 0.0

**Query** Please do the same for `CCCNc1cc(N2CCC(CCC(=O)O)CC2)ncn1` as well.
**Result** 1.0

**Query** Please do the same for `COc1cc(NS(=O)(=O)c2cc(-c3cnn4c(C)cc(C)nc34)ccc2OC)cc(OC)c1` as well.
**Result** 0.0

**Query** Please do the same for `CCC(=O)Nc1cnc2c(c1)CCC2` as well.
**Result** 1.0

**Query** Please do the same for Cc1ccc(C(CC(=O)N2CCN(c3ccccn3)CC2)N2Cc3ccccc3C2=O)cc1 (stereo not given) as well.
**Result** 1.0

**Query** Please do the same for `CCNC(=O)C1CCN(C(=O)Nc2ccc(NC(=O)NCCC(C)C)cc2)CC1` as well.
**Result** 1.0

**Query** Please do the same for CCOc1ccccc1NC(=O)NC(C)C(=O)N1CCc2ccccc21 (stereo not given) as well.
**Result** 0.0

**Query** Please do the same for `Cc1csc(-c2cc(S(=O)(=O)N3CCC(Cc4ccccc4)CC3)c(C)n2C)n1` as well.
**Result** 0.0

**Query** Please do the same for COc1ccc(N2C(=O)C3(CCCCC3)C2C(=O)N(C)C)cc1 (stereo not given) as well.
**Result** 1.0

**Query** Please do the same for C=CCN1C(=O)C2(c3ccccc31)c1[nH]c3ccccc3c1CCN2C(C)=O (stereo not given) as well.
**Result** 0.0

**Query** Please do the same for Cc1cccc(C2CCCN2C(=O)c2cnn3cc(Br)cnc23)c1 (stereo not given) as well.
**Result** 0.0

**Query** Please do the same for `O=C(Nc1cccn2nc(C3CCC3)nc12)c1ccccn1` as well.
**Result** 0.0

**Query** Please do the same for `Cc1ccc(NC(=O)Nc2ccc(CC(N)=O)cc2)cc1C` as well.
**Result** 1.0

**Query** Please do the same for Cc1nc(-c2noc(-c3ccc(F)cc3)n2)cn1CC(=O)NC(C)c1ccccc1 (stereo not given) as well.
**Result** 0.0

**Query** Please do the same for `COc1cccc(OC)c1CN1C[C@@H](CO)[C@H](c2ccncc2)C1` as well.
**Result** 1.0

**Query** Please do the same for `O=C(NCc1cccs1)C1CCN(CCc2c[nH]c3ncccc23)CC1` as well.
**Result** 1.0

**Query** Please do the same for `CCOc1ccccc1NC(=O)N1CCC2(CC1)NC(=O)c1ccc(Cl)cc1N2C` as well.
**Result** 0.0

**Query** Please do the same for O=C(NC1CC1)C1CCCN(c2ncnc3c2nc2n3CCCCC2)C1 (stereo not given) as well.
**Result** 1.0

**Query** Please do the same for `COc1ccc(-c2nc3ncccn3c2Nc2cccc(Cl)c2C)cc1` as well.
**Result** 0.0

**Query** Please do the same for `c1ccc2c3c([nH]c2c1)CNCC3` as well.
**Result** 1.0

**Query** Please do the same for `O=C(CCC1CCCC1)NCCC1CCN(C(=O)Nc2cc(F)ccc2F)CC1` as well.
**Result** 0.0

**Query** Please do the same for CCOC(=O)c1cc(S(=O)(=O)N2CCCC2C(=O)N2CCc3ccccc32)cn1C (stereo not given) as well.
**Result** 1.0

**Query** Please do the same for `O=C(Nc1cc(-c2cccnc2)no1)c1ccc2c(c1)OCO2` as well.
**Result** 1.0

**Query** Please do the same for `COc1ccc(-c2cc(C(=O)O)c3ccccc3n2)cc1OC` as well.
**Result** 1.0

**Query** Please do the same for O=C(NC1CCCC1)C1CCCN(c2ncnc3c2oc2ccccc23)C1 (stereo not given) as well.
**Result** 1.0

**Query** Please do the same for CCCC(=O)Nc1ccc2c(c1)CN(C(=O)C1CC1)C(C(=O)N(C)C)C2 (stereo not given) as well.
**Result** 1.0

**Query** Please do the same for `Cn1cc(-c2ccncc2)c(-c2ccc(OCc3ccc4ccccc4n3)cc2)n1` as well.
**Result** 1.0

**Query** Please do the same for `COc1ccc(NS(=O)(=O)c2cc3n(c2)CCCN(C)C3=O)cc1` as well.
**Result** 1.0

----------
Experiment: gradient 5% acetonitrile 3 min, to 50% in 2 min, to 85% in 15 min, held 3 min, 100 µL/min
Details: column: Zorbax Extend-C18 2.1 x 50 mm; eluents: water / acetonitrile, 0.1% formic acid
PROPERTY NAME: RP-LC retention time
Provide the measurement as a number trailed by its unit.

**Query** For the molecule shown here, CCC(=O)N(CCOC)CC(=O)N1CCc2sccc2C1COc1ccccc1F (centres undefined) , give the reported RP-LC retention time.
**Result** 831 s

**Query** Please do the same for CCC(Sc1nnc2c(n1)[nH]c1ccccc12)C(=O)Nc1nc(-c2ccccc2)cs1 (centres undefined) as well.
**Result** 1050 s

**Query** Please do the same for `CC1CCN(S(=O)(=O)c2cc(-c3nnc(C(C)C)o3)co2)CC1` as well.
**Result** 964 s

**Query** Please do the same for `CC(C)Cn1c(=O)c(C(=O)NCCCN2CCCCC2)nc2cccnc21` as well.
**Result** 642 s

**Query** Please do the same for Cn1cnc2c(C(=O)N3CCC(c4ccccc4)C3)nn(-c3ccccc3)c2c1=O (centres undefined) as well.
**Result** 851 s

**Query** Please do the same for Cc1ccnc(N2CCCC(C(=O)NCC3CCN(Cc4ccccc4F)CC3)C2)n1 (centres undefined) as well.
**Result** 608 s

**Query** Please do the same for `COc1ccc(Cl)cc1NC(=O)c1cnc2c(c1)c(=O)n(C)c(=O)n2-c1ccccc1` as well.
**Result** 1010 s

**Query** Please do the same for `CCN(CC)S(=O)(=O)c1cccc(-c2nnc(-c3ccc(Cl)cc3)o2)c1` as well.
**Result** 1140 s

**Query** Please do the same for `O=C(Cn1c(=O)n(Cc2cccnc2)c(=O)c2ncccc21)c1ccc2c(c1)CCCC2` as well.
**Result** 630 s

----------
Assay: gradient 5% acetonitrile 3 min, to 50% in 2 min, to 85% in 15 min, held 3 min, 100 µL/min
Conditions: column: Zorbax Extend-C18 2.1 x 50 mm; eluents: water / acetonitrile, 0.1% formic acid
PROPERTY NAME: RP-LC retention time (s)
Reply numerically in s, unit not repeated.

**Query** For the compound shown here, `Cc1csc(C(=O)Nc2cccc3ccc(-n4ccnc4)nc23)c1` , give the reported RP-LC retention time.
**Result** 641

**Query** Please do the same for CCC(O)c1nc2ccccc2n1CC(=O)N1CCOCC1 (centres undefined) as well.
**Result** 566

**Query** Please do the same for `COC(=O)c1c(NCc2cccc(OC)c2)c2cc(Cl)ccc2[nH]c1=O` as well.
**Result** 816

**Query** Please do the same for CCN1C(=O)NC(c2ccccc2C(F)(F)F)C2=C1CN(CCC(=O)NCCOC)C2=O (centres undefined) as well.
**Result** 928

**Query** Please do the same for `Cc1ccc(F)c(NS(=O)(=O)c2cc3c(s2)CCN(C(=O)C2CCC2)C3)c1` as well.
**Result** 891

**Query** Please do the same for `COc1cc(Cl)c(NS(=O)(=O)c2c(C)sc(C)c2-c2cc(C(F)(F)F)on2)c(OC)c1` as well.
**Result** 1190

**Query** Please do the same for `COc1ccc(-c2nc(Cn3c(C)cc(C)c(-c4nc(-c5ccccc5)no4)c3=O)c(C)o2)cc1` as well.
**Result** 1230

**Query** Please do the same for Cc1ccccc1CNC(=O)C1(C)CCCN(C(=O)Nc2cccc(Cl)c2C)C1 (centres undefined) as well.
**Result** 1060

**Query** Please do the same for CCN1C(=O)c2c(C(=O)NCCc3ccccc3)ncn2CC1(C)C(=O)NC1CCCC1 (centres undefined) as well.
**Result** 756

**Query** Please do the same for `Cc1ccnc(NC(=O)NCCCSc2nnc(-c3ccccc3)o2)n1` as well.
**Result** 727

**Query** Please do the same for `COCc1c(C(=O)N2CC(F)(F)C[C@H]2c2nc(C)no2)noc1C` as well.
**Result** 778

**Query** Please do the same for `Cc1ccc(S(=O)(=O)N2CCC(C(=O)NCc3csc(-c4ccccc4)n3)CC2)cc1C` as well.
**Result** 989

**Query** Please do the same for CCCC(C)C(=O)NC1CCN(C2=NS(=O)(=O)C(c3ccc(CC)cc3)=C2C)CC1 (centres undefined) as well.
**Result** 927

**Query** Please do the same for COCCn1nnnc1C1CC2(CCOCC2)C(=O)N1Cc1ccc(SC)cc1 (centres undefined) as well.
**Result** 777

**Query** Please do the same for COc1ccc(NC(=O)C2CCC(=O)N2S(=O)(=O)c2ccc(C)c(C)c2)cc1Cl (centres undefined) as well.
**Result** 956

**Query** Please do the same for CCNC(=O)C1CCCN1C(=O)Nc1ccccc1 (centres undefined) as well.
**Result** 619

**Query** Please do the same for `Cc1cccc(CC(=O)N2C[C@@H]3C[C@H](NC(=O)c4ccccc4)[C@H]2C3)c1` as well.
**Result** 794

**Query** Please do the same for `CN(C)CCNc1oc(COc2ccc(Cl)cc2)nc1C#N` as well.
**Result** 641

**Query** Please do the same for `O=C(O)c1cnc(NCc2ccncc2)nc1-c1ccccc1` as well.
**Result** 570

**Query** Please do the same for `Cc1cc(C)c2c(n1)nn1c(N3CCN(c4ccccn4)CC3)cc(C)nc21` as well.
**Result** 561

**Query** Please do the same for Cc1ccc2c(c1)C(O)(CC(=O)c1cccc(-n3cccc3)c1)C(=O)N2 (centres undefined) as well.
**Result** 711

**Query** Please do the same for `C=CCN1N=C(C(=O)N2CCC(C)CC2)S(=O)(=O)c2ccc(Cl)cc21` as well.
**Result** 997

**Query** Please do the same for Cc1ccc(NC(=O)C2CCCN2S(=O)(=O)c2cc3c(cc2C)NC(=O)C(C)O3)cc1C (centres undefined) as well.
**Result** 842

**Query** Please do the same for Cn1ncc(Cl)c1C(=O)N1CCCC1c1ccc(F)cc1 (centres undefined) as well.
**Result** 825

**Query** Please do the same for `Cn1nc(C(=O)N2CCCC2)c2c1CCN(C(=O)Nc1cc(F)ccc1F)C2` as well.
**Result** 728

**Query** Please do the same for `CCCNC(=O)Cn1c(CC)nc2c(c1=O)CN(Cc1ccccc1)CC2` as well.
**Result** 589

**Query** Please do the same for `COC(=O)C1=CN(c2ccc(F)c(Cl)c2)c2ccccc2S1(=O)=O` as well.
**Result** 910

**Query** Please do the same for `O=C(CSc1ncnc2c1nnn2Cc1ccc(F)cc1)N1CCCC1` as well.
**Result** 764

**Query** Please do the same for `CCCN1C(=O)COc2ccc(-c3noc(-c4cc(OC)cc(OC)c4)n3)cc21` as well.
**Result** 1240

**Query** Please do the same for `Cc1noc(-c2ccc(-n3ncc(C(=O)NC4CC4)c3C)nc2)n1` as well.
**Result** 709

**Query** Please do the same for `CCN(CC)CCNC(=O)CCC(=O)N1CCc2c(c(C(=O)N3CCCC3)nn2C)C1` as well.
**Result** 578

**Query** Please do the same for `C(=C\c1ccccn1)/c1ccccn1` as well.
**Result** 590

**Query** Please do the same for CCCNC(=O)N(CC(=O)N1CCc2sccc2C1COc1ccccc1)CC1CCCO1 (centres undefined) as well.
**Result** 911

**Query** Please do the same for `Cc1cc(F)ccc1NS(=O)(=O)c1ccc2c(c1)C(=O)N(C)c1ncccc1O2` as well.
**Result** 924

**Query** Please do the same for `O=C(CCC1CCN(S(=O)(=O)c2ccccc2)CC1)NCc1ccc(F)cc1` as well.
**Result** 882

**Query** Please do the same for `CCOc1ccc(S(=O)(=O)Nc2ccc(-c3cn4ccc(C)nc4n3)cc2)c(OCC)c1` as well.
**Result** 691

**Query** Please do the same for `CCn1cc(C)c(C(=O)O)c1CC(=O)NCc1ccc(C)cc1` as well.
**Result** 772

**Query** Please do the same for CCOc1nccnc1N1CCC(N(C)C(=O)c2ccc(C#N)cc2)C1 (centres undefined) as well.
**Result** 751

**Query** Please do the same for `Cc1cccc(N2CCN(c3ccc4cc(S(=O)(=O)N5CCCCC5)ccc4n3)CC2)c1C` as well.
**Result** 1320
